# protocol-description: Toxicity liver stage against HepG2, at 10uM
# Assay type: cell-based
# Parameters: test concentration 10 uM, cell line HepG2-A16-CD81EGFP
# measurement-parameters: human, HepG2-A16-CD81EGFP cells; read-out: INHIBITION
readout-type: cytotoxicity at 10 µM (%)

[
  {
    "compound": "O=C(NCCc1csc(-c2cnccn2)n1)c1cnn[nH]1",
    "readout-type": "cytotoxicity at 10 µM",
    "value-units": "%",
    "observed-measurement": 6.46
  },
  {
    "compound": "CS(=O)(=O)NCc1cncc2c1CCN(C(=O)c1ccccn1)C2",
    "readout-type": "cytotoxicity at 10 µM",
    "value-units": "%",
    "observed-measurement": 0.734
  },
  {
    "compound": "Cc1cccc(COC2COC3(CCN(S(C)(=O)=O)CC3)C2)n1 (stereo unspecified)",
    "readout-type": "cytotoxicity at 10 µM",
    "value-units": "%",
    "observed-measurement": 8.98
  },
  {
    "compound": "CC(=O)N1CCCC1c1cccc(C)c1C (stereo unspecified)",
    "readout-type": "cytotoxicity at 10 µM",
    "value-units": "%",
    "observed-measurement": 10.8
  },
  {
    "compound": "COc1nn(C)cc1C(=O)NCC1(O)CCc2ccccc2C1 (stereo unspecified)",
    "readout-type": "cytotoxicity at 10 µM",
    "value-units": "%",
    "observed-measurement": -6.98
  },
  {
    "compound": "COC1CCN(C(=O)CC(C)(C)C)CC(=O)N(C)c2ccccc21 (stereo unspecified)",
    "readout-type": "cytotoxicity at 10 µM",
    "value-units": "%",
    "observed-measurement": 2.44
  },
  {
    "compound": "O=C(CCCn1cccn1)N1C[C@@H](O)[C@H](Oc2cccc(F)c2)C1",
    "readout-type": "cytotoxicity at 10 µM",
    "value-units": "%",
    "observed-measurement": 5.75
  },
  {
    "compound": "NC(=O)CC1CCCCN1C(=O)c1cccc(C(F)(F)F)c1 (stereo unspecified)",
    "readout-type": "cytotoxicity at 10 µM",
    "value-units": "%",
    "observed-measurement": -1.03
  },
  {
    "compound": "c1ccc(COc2ccccc2CNC2CCc3ncnn3C2)cc1 (stereo unspecified)",
    "readout-type": "cytotoxicity at 10 µM",
    "value-units": "%",
    "observed-measurement": -10.2
  },
  {
    "compound": "CS(=O)(=O)N1Cc2ccnn2CC(C(=O)NCc2cccnc2)C1 (stereo unspecified)",
    "readout-type": "cytotoxicity at 10 µM",
    "value-units": "%",
    "observed-measurement": -88.9
  },
  {
    "compound": "COCC(C)(CCO)NC(=O)Nc1c(F)cccc1Br (stereo unspecified)",
    "readout-type": "cytotoxicity at 10 µM",
    "value-units": "%",
    "observed-measurement": 3.79
  },
  {
    "compound": "CN(C)C(C(=O)N1CCN(CC(F)(F)F)CC1)c1ccccc1F (stereo unspecified)",
    "readout-type": "cytotoxicity at 10 µM",
    "value-units": "%",
    "observed-measurement": -2.42
  },
  {
    "compound": "Cc1ncnc(N2CCCN(c3nc4ccccc4s3)CC2)c1C",
    "readout-type": "cytotoxicity at 10 µM",
    "value-units": "%",
    "observed-measurement": 55.5
  },
  {
    "compound": "Cn1cc(CN2CCc3ncnc(N4CCCC4)c3CC2)cn1",
    "readout-type": "cytotoxicity at 10 µM",
    "value-units": "%",
    "observed-measurement": -0.818
  },
  {
    "compound": "CCc1nc(CNC(C)c2cccc(N3CCCC3=O)c2)cs1 (stereo unspecified)",
    "readout-type": "cytotoxicity at 10 µM",
    "value-units": "%",
    "observed-measurement": 7.28
  },
  {
    "compound": "c1ccc(-c2cnc(CN3CCn4c(nnc4C4CC4)C3)o2)cc1",
    "readout-type": "cytotoxicity at 10 µM",
    "value-units": "%",
    "observed-measurement": -7.67
  },
  {
    "compound": "CN1CCCC2(CCN(c3cccc(C(F)(F)F)n3)C2)C1=O (stereo unspecified)",
    "readout-type": "cytotoxicity at 10 µM",
    "value-units": "%",
    "observed-measurement": 7.87
  },
  {
    "compound": "CCOCC1CN(c2ncc(F)cn2)Cc2cn(CC)nc21 (stereo unspecified)",
    "readout-type": "cytotoxicity at 10 µM",
    "value-units": "%",
    "observed-measurement": 8.31
  },
  {
    "compound": "O=C(NCCOc1ccc2c(c1)OCO2)N1CCCC(CO)C1 (stereo unspecified)",
    "readout-type": "cytotoxicity at 10 µM",
    "value-units": "%",
    "observed-measurement": -22.3
  },
  {
    "compound": "COc1ccccc1OCCN1CCCC(c2cc(C(N)=O)[nH]n2)C1 (stereo unspecified)",
    "readout-type": "cytotoxicity at 10 µM",
    "value-units": "%",
    "observed-measurement": 3.71
  },
  {
    "compound": "Cn1nccc1CCC(=O)N1CCCC(c2cnccn2)C1 (stereo unspecified)",
    "readout-type": "cytotoxicity at 10 µM",
    "value-units": "%",
    "observed-measurement": -22.7
  },
  {
    "compound": "N#Cc1c(F)cccc1NCCCOCC1CCOC1 (stereo unspecified)",
    "readout-type": "cytotoxicity at 10 µM",
    "value-units": "%",
    "observed-measurement": -2.64
  },
  {
    "compound": "Cc1cccc(OC(C)C(=O)NCC2(N(C)C)CCCC2)c1 (stereo unspecified)",
    "readout-type": "cytotoxicity at 10 µM",
    "value-units": "%",
    "observed-measurement": -13.4
  },
  {
    "compound": "Cc1ccc(NC2CCN(C(=O)c3c(C)noc3C)CC2)nn1",
    "readout-type": "cytotoxicity at 10 µM",
    "value-units": "%",
    "observed-measurement": -4.35
  },
  {
    "compound": "COc1ccccc1OCc1cc(C(=O)N2C[C@H](O)[C@@H](N(C)C)C2)n[nH]1",
    "readout-type": "cytotoxicity at 10 µM",
    "value-units": "%",
    "observed-measurement": 3.2
  },
  {
    "compound": "N#Cc1ccc(N2CCC(c3nc(C(F)(F)F)c[nH]3)CC2)nc1",
    "readout-type": "cytotoxicity at 10 µM",
    "value-units": "%",
    "observed-measurement": -7.09
  },
  {
    "compound": "O=S(=O)(C1CC1)N1CC[C@]2(C[C@@H](Oc3ncccc3F)CO2)C1",
    "readout-type": "cytotoxicity at 10 µM",
    "value-units": "%",
    "observed-measurement": -74.1
  },
  {
    "compound": "CCN(C(c1cccnc1)c1ccc(F)cc1F)S(C)(=O)=O (stereo unspecified)",
    "readout-type": "cytotoxicity at 10 µM",
    "value-units": "%",
    "observed-measurement": 10.8
  },
  {
    "compound": "C=C(C)COc1ccccc1CNCCc1cc(O)nc(C)n1",
    "readout-type": "cytotoxicity at 10 µM",
    "value-units": "%",
    "observed-measurement": -1.6
  },
  {
    "compound": "CC(C(=O)N1CCOCC1)N1CCc2cncnc2C1 (stereo unspecified)",
    "readout-type": "cytotoxicity at 10 µM",
    "value-units": "%",
    "observed-measurement": -5.05
  },
  {
    "compound": "CNS(=O)(=O)c1ccc(C(=O)N2CCCC2Cc2ccccc2)o1 (stereo unspecified)",
    "readout-type": "cytotoxicity at 10 µM",
    "value-units": "%",
    "observed-measurement": -8.53
  },
  {
    "compound": "COc1ccc(OC)c(NC(=O)N2CCCC2c2ccco2)c1 (stereo unspecified)",
    "readout-type": "cytotoxicity at 10 µM",
    "value-units": "%",
    "observed-measurement": -6.57
  },
  {
    "compound": "CN(CCn1cccn1)S(=O)(=O)N1CCCC1c1ccco1 (stereo unspecified)",
    "readout-type": "cytotoxicity at 10 µM",
    "value-units": "%",
    "observed-measurement": -9.56
  },
  {
    "compound": "O=C(NCc1ccco1)[C@H]1CC[C@@H]2[C@@H](CCN2Cc2nccs2)O1",
    "readout-type": "cytotoxicity at 10 µM",
    "value-units": "%",
    "observed-measurement": 2.67
  },
  {
    "compound": "O=C(Cc1cccnc1)NCCSc1ccccc1F",
    "readout-type": "cytotoxicity at 10 µM",
    "value-units": "%",
    "observed-measurement": -6.45
  },
  {
    "compound": "Cc1cn2c(=O)c(-c3ccnc(N[C@@H](C)CO)n3)cnc2s1",
    "readout-type": "cytotoxicity at 10 µM",
    "value-units": "%",
    "observed-measurement": -13.7
  }
]

Data credit: ChEMBL document CHEMBL4513216
